These measurements were taken from patent US6258840A.

Form field: half-life (one value per entry).
Method Notes: Stability to Human Plasma (HPLC, 37° C.)
Format: in vitro ADME
Condition Set: 0.02 ml of 6.3 mg/ml prodrug solution added to 2.5 ml plasma

1. O=C(O)CNC(=O)Oc1cc(-c2oc3cc(O)cc(O)c3c(=O)c2O)ccc1O [3' carbamate ester]
~1 h

Next item in the queue.
Form: molecule = O=C(O)CNC(=O)Oc1ccc(-c2oc3cc(O)cc(O)c3c(=O)c2O)cc1O [4' carbamate ester] ; half-life = ~1 h
